B1: HDV Ribozyme (parent)
chain: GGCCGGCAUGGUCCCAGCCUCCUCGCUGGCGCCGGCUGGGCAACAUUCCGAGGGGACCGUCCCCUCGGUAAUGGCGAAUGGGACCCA

# Variants of: B1
# Assay Text: self-cleavage, relative activity (ratio to wild type); higher = more cleavage; co-transcriptional
Could you label it y if measured self-cleavage is 0.2 or higher, and n otherwise?

For this variant, is measured self-cleavage 0.2 or higher? G10C C33A
y

Can U60C C85A be said to have self-cleavage at or above 0.2?
y

Decide: is the reported value of self-cleavage for C22U G40C equal to or greater than 0.2?
n

For this variant, is measured self-cleavage 0.2 or higher? G40U A77U
y

Quick check, self-cleavage >= 0.2? A56G A83G
y

Does C44U G53U have a reported self-cleavage of at least 0.2?
y

Please check the record C32G U47A and state if its self-cleavage is at or above 0.2.
y

Decide: is the reported value of self-cleavage for A56C G82C equal to or greater than 0.2?
y

Test whether the variant G5U A70G records self-cleavage of 0.2 or higher.
y

Determine whether measured self-cleavage meets or exceeds 0.2 for G2C U20C
n

I'd appreciate it if you could say whether G11U A16G has self-cleavage at least equal to 0.2.
y

Could you tell me if the measured self-cleavage of C13G C66U reaches 0.2 or more?
n

API: above_or_equal(metric=self-cleavage, cutoff=0.2) for item C18A G53C
y

Check if self-cleavage >= 0.2 (inclusive). Item: C3A U47C
y

Threshold query (self-cleavage >= 0.2) on G38U G40C
n

Reported self-cleavage at or above 0.2? C18G G31U
n
